Data origin: paper PMC7336998

Subject of test: IDO1 (Homo sapiens, UniProt P14902)
Construct: a human cervical cancer cell line HeLa that endogenously expresses IDO1 upon IFN-γ treatment; endogenous in cells; host or cells: HeLa cells treated with human IFN-γ
Sequence (P14902 whole entry): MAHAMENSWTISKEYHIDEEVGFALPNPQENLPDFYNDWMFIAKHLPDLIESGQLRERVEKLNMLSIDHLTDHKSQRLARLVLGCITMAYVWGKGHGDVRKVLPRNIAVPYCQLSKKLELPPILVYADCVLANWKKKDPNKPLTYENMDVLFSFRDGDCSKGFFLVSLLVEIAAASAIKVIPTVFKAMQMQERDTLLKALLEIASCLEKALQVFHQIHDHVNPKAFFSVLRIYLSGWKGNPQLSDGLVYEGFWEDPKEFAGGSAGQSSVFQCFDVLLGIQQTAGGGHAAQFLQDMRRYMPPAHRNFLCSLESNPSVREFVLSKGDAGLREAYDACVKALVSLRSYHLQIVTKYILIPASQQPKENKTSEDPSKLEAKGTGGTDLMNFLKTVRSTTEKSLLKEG
Protocol text: HeLa cell-based IDO1/kynurenine assay
Measurement context: percentage inhibition at 30 μM; IFN-γ-treated HeLa cells, kynurenine in media
Value type: inhibition at 30 µM (%)

- CC(=O)Nc1ccc(S(=O)(=O)NCc2ccccc2)cc1 [3e, N-(4-(N-Benzylsulfamoyl)phenyl)acetamide]: 2.5
- C=CC(=O)Nc1ccc(S(=O)(=O)NCCc2ccccc2)cc1: 55.2
- CC(=O)Nc1ccc(S(=O)(=O)Nc2ccc(C(C)C)cc2)cc1: 5.9
- C=CC(=O)Nc1ccc(S(=O)(=O)Nc2cccc(Cl)c2)cc1: 89.5
- C=CC(=O)Nc1ccc(S(=O)(=O)Nc2ccc(C)cc2)cc1: 25.3
- CC(=O)Nc1ccc(S(=O)(=O)NCc2ccc(Cl)cc2)cc1: 13.5
- C=CC(=O)Nc1ccc(S(=O)(=O)NCc2ccc(F)cc2)cc1: 70.9
- C=CC(=O)Nc1ccc(S(=O)(=O)NCc2ccc(Cl)c(Cl)c2)cc1: 44

(1) C=CC(=O)Nc1ccc(S(=O)(=O)NCc2cccc(Br)c2)cc1
(2) Nc1ccc(S(=O)(=O)NCc2cccc(Cl)c2)cc1
Enquiry: Hello, I am sorting some records. Could you say if 1 or 2 has the smaller inhibition at 30 µM value? Respond with the label that goes with your answer.
Return: 2
(2: 2.3%, 1: 89.1%)

---

Value type: melting point

Worked examples follow.
• C=CC(=O)Nc1ccc(S(=O)(=O)Nc2cccc(OC)c2)cc1 [8d] = 197 to 199 °C
• C=CC(=O)Nc1ccc(S(=O)(=O)Nc2cccc(Cl)c2)cc1 [8f] = 217 to 219 °C
• Nc1ccc(S(=O)(=O)NCc2ccc(Cl)cc2)cc1 [4d] = 172 to 174 °C
• CC(=O)Nc1ccc(S(=O)(=O)Nc2cccc(C(C)C)c2)cc1 [3d] = 158 to 160 °C
• C=CC(=O)Nc1ccc(S(=O)(=O)NCc2cccc(F)c2)cc1 [5i] = 152 to 154 °C
• C=CC(=O)Nc1ccc(S(=O)(=O)Nc2ncccn2)cc1 [8h] = 229 to 230 °C
• C=CC(=O)Nc1ccc(S(=O)(=O)NCc2ccc(Br)cc2)cc1 [5k] = 194 to 196 °C
• C=CC(=O)Nc1ccc(S(=O)(=O)NCc2ccc(Cl)cc2)cc1 [5c] = 190 to 192 °C

Enquiry: Endpoint output: melting point of C=CC(=O)Nc1ccc(S(=O)(=O)NCc2ccc(OC)cc2)cc1 [5b] . Value?
Return: 156 to 158 °C

---

Subject of test: IDO1 (Homo sapiens)
Construct: a human cervical cancer cell line HeLa that endogenously expresses IDO1 upon IFN-γ treatment; endogenous in cells; host or cells: HeLa cells treated with human IFN-γ
Protocol text: HeLa cell-based IDO1/kynurenine assay
Measurement context: percentage inhibition at 30 μM; IFN-γ-treated HeLa cells, kynurenine in media
Procedure: The main bioassays performed in the study, including HeLa cell-based IDO1/kynurenine assay, Western blot analysis, T cell proliferation and Treg cell differentiation experiments, were carried out as described previously. It is well known that IDO1 is broadly expressed in human cancers and is induced by pro-inflammatory cytokines, such as interferon gamma (IFN-γ) and tumour necrosis factor alpha (TNF-α)[41]. […]
Value type: inhibition at 30 µM (%)

* C=CC(=O)Nc1ccc(S(=O)(=O)NCc2cccc(F)c2)cc1 | 37.8
* C=CC(=O)Nc1ccc(S(=O)(=O)Nc2cc(C)on2)cc1 | 22.7
* C=CC(=O)Nc1ccc(S(=O)(=O)Nc2cccc(OC)c2)cc1 | 74.8
* Nc1ccc(S(=O)(=O)NCCc2ccccc2)cc1 [4f, 4-Amino-N-phenethylbenzenesulfonamide] | 3.1
* C=CC(=O)Nc1ccc(S(=O)(=O)NCc2ccc(Br)cc2)cc1 | 37.5

(a) C=CC(=O)Nc1ccc(S(=O)(=O)NCc2cccc(C(F)(F)F)c2)cc1
(b) CC(=O)Nc1ccc(S(=O)(=O)NCCc2ccccc2)cc1
Enquiry: Return label of the item with the larger inhibition at 30 µM. Candidates: a , b . Lab log: write the label of the selected item as the result.
Return: a
(a: 49.5%, b: 5.9%)

---

Subject of test: IDO1 (Homo sapiens)
Construct: a human cervical cancer cell line HeLa that endogenously expresses IDO1 upon IFN-γ treatment; endogenous in cells; host or cells: HeLa cells treated with human IFN-γ
Protocol text: HeLa cell-based IDO1/kynurenine assay
Measurement context: HeLa cells, IFN-γ induced IDO1, kynurenine readout
Value type: IC50 (µM)

Record excerpt, results attached:
- C=CC(=O)Nc1ccc(S(=O)(=O)NCc2cccc(C(F)(F)F)c2)cc1: 30.5
- C=CC(=O)Nc1ccc(S(=O)(=O)NCc2ccc(Cl)c(Cl)c2)cc1: 37.3
- C=CC(=O)Nc1ccc(S(=O)(=O)NCc2ccc(C(F)(F)F)cc2)cc1: 39.2

(I) C=CC(=O)Nc1ccc(S(=O)(=O)NCc2ccccc2Cl)cc1
(II) C=CC(=O)Nc1ccc(S(=O)(=O)NCc2ccc(Cl)cc2)cc1
Enquiry: Which record shows the lower IC50: the first, I , or the second, II ? Please identify the chosen entry by its label.
Return: I

---

Value type: melting point

# count of solved cases: 2
• C=CC(=O)Nc1ccc(S(=O)(=O)Nc2onc(C)c2C)cc1 = 206 to 208 °C
• C=CC(=O)Nc1ccc(S(=O)(=O)NCc2ccc(F)cc2)cc1 = 178 to 180 °C

Enquiry: Quick one: melting point of CC(=O)Nc1ccc(S(=O)(=O)NCc2cccc(C(F)(F)F)c2)cc1 ?
Return: 154 to 156 °C

Enquiry: Can you handle CC(=O)Nc1ccc(S(=O)(=O)NCc2ccc(Cl)cc2)cc1 next?
Return: 172 to 174 °C

Enquiry: Same read-out for CC(=O)Nc1ccc(S(=O)(=O)NCCc2ccccc2)cc1 ?
Return: 130 to 132 °C

Enquiry: Subsequent entry: C=CC(=O)Nc1ccc(S(=O)(=O)Nc2cccc(F)c2)cc1
Return: 212 to 215 °C

Enquiry: Can you handle C=CC(=O)Nc1ccc(S(=O)(=O)NCc2cccc(Br)c2)cc1 next?
Return: 156 to 158 °C

Enquiry: Same lookup for C=CC(=O)Nc1ccc(S(=O)(=O)Nc2cc(C)on2)cc1 , please.
Return: 232 to 233 °C

Enquiry: Same thing, different compound: CC(=O)Nc1ccc(S(=O)(=O)Nc2ccc(C(C)C)cc2)cc1
Return: 186 to 188 °C

Enquiry: Param item: C=CC(=O)Nc1ccc(S(=O)(=O)Nc2ccc(C)cc2)cc1
Return: 230 to 232 °C

Enquiry: Okay, and C=CC(=O)Nc1ccc(S(=O)(=O)NCc2ccc(C(F)(F)F)cc2)cc1 ?
Return: 198 to 200 °C

Enquiry: Let us now turn to CC(=O)Nc1ccc(S(=O)(=O)Nc2ccccc2)cc1 [3a, N-(4-(N-Phenylsulfamoyl)phenyl)acetamide]
Return: 204 to 206 °C

Enquiry: Also need C=CC(=O)Nc1ccc(S(=O)(=O)NCc2ccccc2Cl)cc1 , thanks.
Return: 178 to 180 °C

Enquiry: Likewise for C=CC(=O)Nc1ccc(S(=O)(=O)NCc2cccc(C(F)(F)F)c2)cc1 ?
Return: 152 to 154 °C

Enquiry: Follow-up entry: C=CC(=O)Nc1ccc(S(=O)(=O)Nc2ccccc2)cc1
Return: 212 to 213 °C

Enquiry: Next record, please: C=CC(=O)Nc1ccc(S(=O)(=O)NCCc2ccccc2)cc1
Return: 154 to 156 °C

Enquiry: Param item: C=CC(=O)Nc1ccc(S(=O)(=O)Nc2ccc(OC)cc2)cc1
Return: 234 to 235 °C

---

Subject of test: IDO1 (Homo sapiens)
Construct: a human cervical cancer cell line HeLa that endogenously expresses IDO1 upon IFN-γ treatment; endogenous in cells; host or cells: HeLa cells treated with human IFN-γ
Protocol text: HeLa cell-based IDO1/kynurenine assay
Measurement context: HeLa cells, IFN-γ induced IDO1, kynurenine readout
pIC50: −log10 of the molar value.
Value type: pIC50

Worked examples, 4 compounds total:
* C=CC(=O)Nc1ccc(S(=O)(=O)NCc2ccc(OC)cc2)cc1 | 4.40
* C=CC(=O)Nc1ccc(S(=O)(=O)NCc2cccc(F)c2)cc1 | 4.40
* C=CC(=O)Nc1ccc(S(=O)(=O)Nc2cccc(Cl)c2)cc1 | 5.02
* C=CC(=O)Nc1ccc(S(=O)(=O)NCc2ccc(F)cc2)cc1 | 4.69

(a) C=CC(=O)Nc1ccc(S(=O)(=O)NCCc2ccccc2)cc1
(b) C=CC(=O)Nc1ccc(S(=O)(=O)Nc2ccccc2)cc1
(c) C=CC(=O)Nc1ccc(S(=O)(=O)NCc2ccc(Br)cc2)cc1
(d) C=CC(=O)Nc1ccc(S(=O)(=O)NCc2cccc(Br)c2)cc1
Enquiry: Order each entry by recorded pIC50, climbing from the minimum. // ordering of labels required in reply
Return: c, a, b, d
(c: 4.38, a: 4.58, b: 4.88, d: 5.18)
